The entries below are paired with their reported Plate 5 (% inhibition).
- measurement-target: His6-AspH315–758 (human aspartate/asparagine-β-hydroxylase, AspH) (Homo sapiens, UniProt Q12797)
- Construct: N-Terminally His6-tagged human AspH315–758 (His6-AspH315–758) was produced in E. coli BL21 (DE3) cells; made in house; host or cells: E. coli BL21 (DE3), pET-28a(+) vector
- procedure-details: SPE-MS AspH inhibition assay (LOPAC screen at fixed 20 μM and IC50 dose-response), hydroxylation of cyclic peptide hFX-CP101–119
- Type: biochemical
readout-kind: Plate 5 (% inhibition) (%)

[[record]]
compound = "O=C(Nc1ccc2c(c1)CCN(Cc1ncn[nH]1)C2)c1ccccc1-c1ccc(C(F)(F)F)cc1"
readout_units = "%"
test_result = -28.53

[[record]]
compound = "Cc1ccc(O)c([C@H](CCN(C(C)C)C(C)C)c2ccccc2)c1"
readout_units = "%"
test_result = 62.09

[[record]]
compound = "CN1CCC[C@@H]1Cc1c[nH]c2ccc(Nc3ncccc3[N+](=O)[O-])cc12"
readout_units = "%"
test_result = 11.85

[[record]]
compound = "CC(C)(NS(=O)(=O)c1ccc(Oc2ccc(F)cc2)cc1)C(=O)NO"
readout_units = "%"
test_result = -5.33

[[record]]
compound = "O=c1ccc2[nH]cc(C3=CCNCC3)c2[nH]1"
readout_units = "%"
test_result = -5.90

[[record]]
compound = "CC(C)(C)OC(=O)NC1[C@H]2CNC[C@@H]12 (some centres unmarked)"
readout_units = "%"
test_result = -0.06

[[record]]
compound = "CC(C)c1ccc(CC(=O)N2CCC[C@@H](c3cccc(OC(C)(C)C(=O)O)c3)C2)cc1"
readout_units = "%"
test_result = 5.31

[[record]]
compound = "COCCOc1cc2nc[nH]c(=O)c2cc1OCCOC"
readout_units = "%"
test_result = 12.94

[[record]]
compound = "CN(CCC(Oc1ccc(C(=O)c2nccs2)cc1)c1ccc(Cl)cc1)CC(=O)O (centres unmarked)"
readout_units = "%"
test_result = 11.01

[[record]]
compound = "COc1ccccc1CN[C@H]1CCCN[C@H]1c1ccccc1"
readout_units = "%"
test_result = 9.51

[[record]]
compound = "Fc1ccc2[nH]c(CN3CCN(c4ccccn4)CC3)cc2c1"
readout_units = "%"
test_result = -4.22


* * *

- measurement-target: His6-AspH315–758 (human aspartate/asparagine-β-hydroxylase, AspH) (Homo sapiens, UniProt Q12797)
- Construct: N-Terminally His6-tagged human AspH315–758 (His6-AspH315–758) was produced in E. coli BL21 (DE3) cells; made in house; host or cells: E. coli BL21 (DE3), pET-28a(+) vector
- procedure-details: SPE-MS AspH inhibition assay (LOPAC screen at fixed 20 μM and IC50 dose-response), hydroxylation of cyclic peptide hFX-CP101–119
- Assay type: biochemical
readout-kind: Plate 2 (% conversion)

[[record]]
compound = "C[C@@H]1O[C@@H](O[C@H]2C[C@@H](O)[C@]3(CO)[C@H]4[C@H](O)C[C@]5(C)[C@@H]([C@@H]6COC(=O)C6)CC[C@]5(O)[C@@H]4CC[C@]3(O)C2)[C@H](O)[C@H](O)[C@H]1O [Dihydroouabain]"
test_result = "38.16%"

[[record]]
compound = "CC[n+]1c(/C=C/C=C2/N(C)c3ccccc3C2(C)C)sc2ccccc21.[I-] [AC-93253 iodide]"
test_result = "41.62%"

[[record]]
compound = "CC(N)c1cccc(Cl)c1Cl.Cl (racemic)"
test_result = "38.94%"

[[record]]
compound = "CC[N+](C)(C)c1cccc(O)c1 [Edrophonium chloride]"
test_result = "37.54%"

[[record]]
compound = "O=c1oc(Cl)c(Cl)c2ccccc12"
test_result = "29.65%"

[[record]]
compound = "C[C@]12CC[C@@H]3c4ccc(O)cc4CC[C@H]3[C@@H]1CCC2=O"
test_result = "37.75%"

[[record]]
compound = "COC1=C(OC)C(=O)c2ccccc2C1=O"
test_result = "33.76%"

[[record]]
compound = "CC(C)[C@H]1CN[C@H](C(=O)O)[C@H]1CC(=O)O [Dihydrokainic acid]"
test_result = "34.38%"


* * *

- measurement-target: His6-AspH315–758 (human aspartate/asparagine-β-hydroxylase, AspH) (Homo sapiens, UniProt Q12797)
- Construct: N-Terminally His6-tagged human AspH315–758 (His6-AspH315–758) was produced in E. coli BL21 (DE3) cells; made in house; host or cells: E. coli BL21 (DE3), pET-28a(+) vector
- Sequence (Q12797 315-758): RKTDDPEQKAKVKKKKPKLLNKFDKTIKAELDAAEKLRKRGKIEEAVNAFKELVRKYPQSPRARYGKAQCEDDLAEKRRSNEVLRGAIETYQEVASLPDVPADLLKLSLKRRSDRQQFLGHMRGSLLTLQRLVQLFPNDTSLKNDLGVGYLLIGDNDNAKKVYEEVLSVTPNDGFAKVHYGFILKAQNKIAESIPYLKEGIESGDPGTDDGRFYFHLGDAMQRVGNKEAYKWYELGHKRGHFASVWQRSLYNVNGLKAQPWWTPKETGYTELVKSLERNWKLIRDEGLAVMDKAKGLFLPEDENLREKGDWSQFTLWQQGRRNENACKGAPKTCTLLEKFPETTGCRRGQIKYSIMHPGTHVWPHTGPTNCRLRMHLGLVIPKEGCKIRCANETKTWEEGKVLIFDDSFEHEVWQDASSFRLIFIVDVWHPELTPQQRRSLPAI
- procedure-details: SPE-MS AspH inhibition assay (LOPAC screen at fixed 20 μM and IC50 dose-response), hydroxylation of cyclic peptide hFX-CP101–119
- Assay type: biochemical
- assay-conditions: read-out: IC50 metal ion, AspH
readout-kind: IC50 (nM)

[[record]]
compound_structure_string = "O=S(=O)([O-])[O-].[Ni+2]"
test_result = 170


* * *

Reported values of % conversion for individual entries
- measurement-target: His6-AspH315–758 (human aspartate/asparagine-β-hydroxylase, AspH) (Homo sapiens)
- Construct: N-Terminally His6-tagged human AspH315–758 (His6-AspH315–758) was produced in E. coli BL21 (DE3) cells; made in house; host or cells: E. coli BL21 (DE3), pET-28a(+) vector
- procedure-details: SPE-MS AspH inhibition assay (LOPAC screen at fixed 20 μM and IC50 dose-response), hydroxylation of cyclic peptide hFX-CP101–119
- Assay type: biochemical
readout-kind: % conversion (%)

[[record]]
compound = "Cl.OC1CCCCC1N1CCC(c2ccccc2)CC1 (racemic) [(±)-Vesamicol hydrochloride]"
measurement_target = "His6-AspH315–758 (human aspartate/asparagine-β-hydroxylase, AspH) (Homo sapiens)"
test_result = 40.91

[[record]]
compound = "CN(CCCOc1ccc(Cc2ccccc2)cc1)CCC(=O)O.Cl [SC-57461A]"
measurement_target = "His6-AspH315–758 (human aspartate/asparagine-β-hydroxylase, AspH) (Homo sapiens)"
test_result = 41.07

[[record]]
compound = "Nc1ccc(CCN2CCN(c3cccc(C(F)(F)F)c3)CC2)cc1 [PAPP]"
measurement_target = "His6-AspH315–758 (human aspartate/asparagine-β-hydroxylase, AspH) (Homo sapiens)"
test_result = 42.06

[[record]]
compound = "CC(N)Cc1cccc(C(F)(F)F)c1.Cl (single isomer, unassigned; (+)) [(+)-Norfenfluramine hydrochloride]"
measurement_target = "His6-AspH315–758 (human aspartate/asparagine-β-hydroxylase, AspH) (Homo sapiens)"
test_result = 26.61

[[record]]
compound = "CN1CCC[C@@H]1Cc1c[nH]c2ccc(Nc3ncccc3[N+](=O)[O-])cc12 [CP-135807]"
measurement_target = "His6-AspH315–758 (human aspartate/asparagine-β-hydroxylase, AspH) (Homo sapiens)"
test_result = 37.42

[[record]]
compound = "CC(=O)c1c(O)c(C)c(O)c(Cc2c(O)c3c(c(C(=O)/C=C/c4ccccc4)c2O)OC(C)(C)C=C3)c1O [Rottlerin]"
measurement_target = "His6-AspH315–758 (human aspartate/asparagine-β-hydroxylase, AspH) (Homo sapiens)"
test_result = 14.64

[[record]]
compound = "N[C@@H](Cn1ccc(=O)c(O)c1)C(=O)O [L-Mimosine from Koa hoale seeds]"
measurement_target = "His6-AspH315–758 (human aspartate/asparagine-β-hydroxylase, AspH) (Homo sapiens)"
test_result = 35.13

[[record]]
compound = "CCN(CC)CCOc1ccc(Nc2ncc3cc(-c4c(Cl)cccc4Cl)c(=O)n(C)c3n2)cc1.O [PD-166285 hydrate]"
measurement_target = "His6-AspH315–758 (human aspartate/asparagine-β-hydroxylase, AspH) (Homo sapiens)"
test_result = 50.97

[[record]]
compound = "CC#CCOC(=O)c1c(C)nc2sc3c(c2c1N)CCC(O)C3 (stereo not shown) [SB 205384]"
measurement_target = "His6-AspH315–758 (human aspartate/asparagine-β-hydroxylase, AspH) (Homo sapiens)"
test_result = 39.48

[[record]]
compound = "Cl.O=c1[nH]oc2c1CCNC2 [THIP hydrochloride]"
measurement_target = "His6-AspH315–758 (human aspartate/asparagine-β-hydroxylase, AspH) (Homo sapiens)"
test_result = 36.67

[[record]]
compound = "C[C@H](CSC(=O)c1ccccc1)C(=O)N1C[C@@H](Sc2ccccc2)C[C@H]1C(=O)[O-].C[C@H](CSC(=O)c1ccccc1)C(=O)N1C[C@@H](Sc2ccccc2)C[C@H]1C(=O)[O-].[Ca+2] [Zofenopril calcium]"
measurement_target = "His6-AspH315–758 (human aspartate/asparagine-β-hydroxylase, AspH) (Homo sapiens)"
test_result = 32.50

[[record]]
compound = "O=C(O)C=Cc1c[nH]cn1 [4-Imidazoleacrylic acid]"
measurement_target = "His6-AspH315–758 (human aspartate/asparagine-β-hydroxylase, AspH) (Homo sapiens)"
test_result = 20.39

[[record]]
compound = "CCCn1c(=O)c(C)cn2nc(N)nc12 [ICI 63,137]"
measurement_target = "His6-AspH315–758 (human aspartate/asparagine-β-hydroxylase, AspH) (Homo sapiens)"
test_result = 30.53

[[record]]
compound = "COc1cccc(-c2cc(=O)c3ccccc3o2)c1N [PD 98,059]"
measurement_target = "His6-AspH315–758 (human aspartate/asparagine-β-hydroxylase, AspH) (Homo sapiens)"
test_result = 28.37

[[record]]
compound = "C[N+]1(C)[C@@H]2CC(OC(=O)[C@H](CO)c3ccccc3)C[C@H]1[C@@H]1O[C@@H]12.O=[N+]([O-])[O-] (single isomer, unassigned; (-)) [(-)-Scopolamine methyl nitrate]"
measurement_target = "His6-AspH315–758 (human aspartate/asparagine-β-hydroxylase, AspH) (Homo sapiens)"
test_result = 25.39

[[record]]
compound = "C[N+]1(C)[C@@H]2C[C@@H](OC(=O)[C@H](CO)c3ccccc3)C[C@H]1[C@@H]1O[C@@H]12 [(-)-Scopolamine methyl bromide]"
measurement_target = "His6-AspH315–758 (human aspartate/asparagine-β-hydroxylase, AspH) (Homo sapiens)"
test_result = 37.79


Reference for the values: paper PMC7251097
